src = patent US5283246A

- Test system: cardiac cells
- PROTOCOL_NOTES: Oxidative necrosis of cardiac cells induced by hypoxanthine/xanthine-oxidase (XO + HX)
- Format: cell-based, rat (newborn)
- TEST_SETTINGS: Rattus norvegicus, 4 h; 10^-6 M; XO + HX; control XO + HX = 100.0; read-out: necrosis index of cardiac cells, XO + HX, compound 10^-6 M
ENDPOINT_LABEL: activity at 1 µM (%)
Give bare numbers, in %.

Example entries begin here.
>  <TEST_SMILES>
COc1ccc(CN2CCN(CCCOc3cc(C(C)(C)C)c(O)c(C(C)(C)C)c3)CC2)c(OC)c1OC

>  <activity at 1 µM (%)>
16.9

$$$$
>  <TEST_SMILES>
COc1ccc(CN2CCN(CCCc3cc(C(C)(C)C)c(O)c(C(C)(C)C)c3)CC2)c(OC)c1OC

>  <activity at 1 µM (%)>
22.3

$$$$

// switching to the query molecule
Q: Item under review: COc1ccc(CN2CCN(CCCCCOc3cc(C(C)(C)C)c(O)c(C(C)(C)C)c3)CC2)c(OC)c1OC . Reported activity at 1 µM?
Result: 21.6
